meta.source: patent US9133183B2

Reported IC50 values for the following compounds.
Test system: osteoclast precursors
test.name: Osteoclast tartrate-resistant acid phosphatase assay
Format: cell-based
recorded.conditions: Osteoclast, 7-14 days, RANKL and M-CSF

smiles.entry | IC50
Cn1cc(-c2cc(Oc3ccc(NC(=O)N4CCN(C(C)(C)C)C4=O)nc3)ccn2)cn1 | 10 to 100 nM
CCN1CCN(C(=O)Nc2ccc(Oc3ccnc(-c4cnn(C)c4)c3)cn2)C1=O | < 10 nM
Cc1ncc(-c2cc(Oc3ccc(NC(=O)N4CCN(C5CC5)C4=O)nc3C)ccn2)s1 | 10 to 100 nM

API: the following record is the query input.
According to the records, this compound COCCN1CCN(C(=O)Nc2ccc(Oc3ccnc(-c4cnn(C)c4)c3)cn2)C1=O displays IC50 of 10 to 100 nM

* * *

tested.target: unphosphorylated PDGFRβ kinase (uPDGFRβ, Seq. ID No. 3) (Homo sapiens (Human), UniProt P09619)
Sequence (P09619 557-1106): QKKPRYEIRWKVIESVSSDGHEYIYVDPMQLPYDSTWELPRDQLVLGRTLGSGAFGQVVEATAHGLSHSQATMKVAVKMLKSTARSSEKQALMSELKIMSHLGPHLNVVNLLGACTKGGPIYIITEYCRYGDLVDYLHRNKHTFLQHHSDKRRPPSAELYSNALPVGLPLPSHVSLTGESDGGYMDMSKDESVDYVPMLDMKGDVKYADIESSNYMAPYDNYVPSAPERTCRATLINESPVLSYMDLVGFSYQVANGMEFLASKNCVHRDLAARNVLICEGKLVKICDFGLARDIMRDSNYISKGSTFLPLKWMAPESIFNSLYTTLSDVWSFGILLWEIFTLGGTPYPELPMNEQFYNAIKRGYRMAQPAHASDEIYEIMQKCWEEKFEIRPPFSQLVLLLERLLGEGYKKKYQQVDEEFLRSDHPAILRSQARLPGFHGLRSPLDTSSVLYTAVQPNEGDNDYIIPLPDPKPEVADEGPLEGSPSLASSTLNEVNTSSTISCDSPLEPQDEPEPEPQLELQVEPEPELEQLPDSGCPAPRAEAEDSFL
test.name: Unphosphorylated PDGFRβ kinase assay (coupled pyruvate kinase/lactate dehydrogenase)
recorded.conditions: enzymatic assay, ATP 500 μM
Reported IC50 values for the following compounds.

smiles.entry | IC50
Cc1nc(NC(=O)N2CCN(C3COC3)C2=O)ccc1Oc1ccnc(-c2cnn(C)c2)c1 | > 1000 nM

According to the records, this compound Cc1cc(-c2cc(Oc3ccc(NC(=O)N4CCN(C5CCOCC5)C4=O)nc3C)ccn2)on1 displays IC50 of > 1000 nM

According to the records, this compound Cn1cc(-c2cc(Oc3ccc(NC(=O)N4CCN(CC#N)C4=O)nc3)ccn2)cn1 displays IC50 of > 1000 nM

According to the records, this compound Cc1cc(NC(=O)N2CCN(C)C2=O)ncc1Oc1ccnc(-c2cnn(C)c2)c1 displays IC50 of > 1000 nM

* * *

tested.target: unphosphorylated c-KIT kinase (uKIT, Seq. ID no. 2) (Homo sapiens (Human), UniProt P10721)
Sequence (P10721 other isoform, or with tags, fused parts or gaps): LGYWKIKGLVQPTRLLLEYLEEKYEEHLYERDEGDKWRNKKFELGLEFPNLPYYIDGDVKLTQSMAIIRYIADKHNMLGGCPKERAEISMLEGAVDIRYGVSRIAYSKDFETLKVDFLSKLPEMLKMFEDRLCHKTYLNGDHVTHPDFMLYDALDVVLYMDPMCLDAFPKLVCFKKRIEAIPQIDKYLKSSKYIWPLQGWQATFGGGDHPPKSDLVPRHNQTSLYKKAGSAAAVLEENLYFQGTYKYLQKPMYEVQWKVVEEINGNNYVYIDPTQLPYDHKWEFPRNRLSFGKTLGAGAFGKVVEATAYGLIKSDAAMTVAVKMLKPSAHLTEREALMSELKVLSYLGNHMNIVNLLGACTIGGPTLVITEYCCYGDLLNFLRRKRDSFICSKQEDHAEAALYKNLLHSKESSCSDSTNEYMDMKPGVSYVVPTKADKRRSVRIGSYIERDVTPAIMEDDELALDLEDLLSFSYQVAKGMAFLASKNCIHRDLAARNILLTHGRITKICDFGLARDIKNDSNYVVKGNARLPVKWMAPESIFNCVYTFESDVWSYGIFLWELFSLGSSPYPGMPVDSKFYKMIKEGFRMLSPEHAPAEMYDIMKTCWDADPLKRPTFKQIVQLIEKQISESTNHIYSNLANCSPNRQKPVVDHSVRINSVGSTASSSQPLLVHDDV
test.name: uKit kinase assay (coupled pyruvate kinase/lactate dehydrogenase)
recorded.conditions: enzymatic assay, ATP 2000 μM
pIC50: −log10 of the molar value.
recorded.endpoint: pIC50

Consider the worked cases shown below.
compound | tested.target | pIC50
[2H]C([2H])([2H])n1cc(-c2cc(Oc3ccc(NC(=O)N4CCN(CCOC)C4=O)nc3C)ccn2)cn1 [Example 39] | unphosphorylated c-KIT kinase (uKIT, Seq. ID no. 2) (Homo sapiens (Human), UniProt P10721) | 6.00 to 7.00
Cc1ncc(-c2cc(Oc3ccc(NC(=O)N4CCN(C5CC5)C4=O)nc3C)ccn2)s1 [Example 65] | unphosphorylated c-KIT kinase (uKIT, Seq. ID no. 2) (Homo sapiens (Human), UniProt P10721) | 6.00 to 7.00
Cc1nc(NC(=O)N2CC(C)(C)N(C3CCCCC3)C2=O)ccc1Oc1ccnc(-c2cnn(C)c2)c1 [Example 32] | unphosphorylated c-KIT kinase (uKIT, Seq. ID no. 2) (Homo sapiens (Human), UniProt P10721) | 6.00 to 7.00
Cn1cc(-c2cc(Oc3ccc(NC(=O)N4CCN(CCOC(F)(F)F)C4=O)nc3)ccn2)cn1 [Example 21] | unphosphorylated c-KIT kinase (uKIT, Seq. ID no. 2) (Homo sapiens (Human), UniProt P10721) | 7.00 to 8.00
CCc1nc(NC(=O)N2CCN(CC(F)(F)F)C2=O)ccc1Oc1ccnc(-c2cnn(C)c2)c1 [Example 56] | unphosphorylated c-KIT kinase (uKIT, Seq. ID no. 2) (Homo sapiens (Human), UniProt P10721) | < 6.00
CCc1nc(NC(=O)N2CCN(C3CC3)C2=O)ccc1Oc1ccnc(-c2cnn(C)c2)c1 [Example 58] | unphosphorylated c-KIT kinase (uKIT, Seq. ID no. 2) (Homo sapiens (Human), UniProt P10721) | < 6.00

According to the records, this compound CCn1cc(-c2cc(Oc3ccc(NC(=O)N4CCN(C5CCOCC5)C4=O)nc3)ccn2)cn1 [Example 4] displays pIC50 of 7.00 to 8.00

According to the records, this compound CCN1CCN(C(=O)Nc2ccc(Oc3ccnc(-c4ccnc(C)c4)c3)c(C)n2)C1=O [Example 118] displays pIC50 of < 6.00

* * *

Test system: osteoclast precursors
test.name: Osteoclast tartrate-resistant acid phosphatase assay
Assay type: cell-based
recorded.conditions: Osteoclast, 7-14 days, RANKL and M-CSF
recorded.endpoint: IC50

Consider the worked cases shown below.
smiles.entry | recorded.endpoint | val
CCc1nc(NC(=O)N2CCN(CC(F)(F)F)C2=O)ccc1Oc1ccnc(-c2cnn(C)c2)c1 | IC50 | 100 to 1000 nM
Cn1cc(-c2cc(Oc3ccc(NC(=O)N4CCN(C5CCOCC5)C4=O)cc3Cl)ccn2)cn1 | IC50 | 100 to 1000 nM
Cc1cc(-c2cc(Oc3ccc(NC(=O)N4CCN(C5CCOCC5)C4=O)nc3C)ccn2)ccn1 | IC50 | 10 to 100 nM
Cc1cc(-c2cc(Oc3ccc(NC(=O)N4CCN(C5CCOCC5)C4=O)nc3)ccn2)ccn1 | IC50 | 100 to 1000 nM
Cn1cc(-c2cc(Oc3ccc(NC(=O)N4CCN(C5CCOCC5)C4=O)nc3)ncn2)cn1 | IC50 | 10 to 100 nM

According to the records, this compound Cc1ncc(-c2cc(Oc3ccc(NC(=O)N4CCN(C5CCCC5)C4=O)nc3C)ccn2)s1 displays IC50 of 10 to 100 nM

According to the records, this compound Cc1nc(NC(=O)N2CCN(C3CCCCC3)C2=O)ccc1Oc1ccnc(-c2cnn(C)c2)c1 displays IC50 of < 10 nM

According to the records, this compound Cc1cc(NC(=O)N2CCN(C)C2=O)ncc1Oc1ccnc(-c2cnn(C)c2)c1 displays IC50 of < 10 nM

According to the records, this compound Cn1cc(-c2cc(Oc3cc(F)c(NC(=O)N4CCN(C5CCOCC5)C4=O)cc3Br)ccn2)cn1 displays IC50 of 100 to 1000 nM

According to the records, this compound COC1(CCN2CCN(C(=O)Nc3ccc(Oc4ccnc(-c5cnn(C)c5)c4)cn3)C2=O)CC1 displays IC50 of 10 to 100 nM

* * *

tested.target: cMET kinase (Homo sapiens (Human))
Sequence (P08581 25-1390): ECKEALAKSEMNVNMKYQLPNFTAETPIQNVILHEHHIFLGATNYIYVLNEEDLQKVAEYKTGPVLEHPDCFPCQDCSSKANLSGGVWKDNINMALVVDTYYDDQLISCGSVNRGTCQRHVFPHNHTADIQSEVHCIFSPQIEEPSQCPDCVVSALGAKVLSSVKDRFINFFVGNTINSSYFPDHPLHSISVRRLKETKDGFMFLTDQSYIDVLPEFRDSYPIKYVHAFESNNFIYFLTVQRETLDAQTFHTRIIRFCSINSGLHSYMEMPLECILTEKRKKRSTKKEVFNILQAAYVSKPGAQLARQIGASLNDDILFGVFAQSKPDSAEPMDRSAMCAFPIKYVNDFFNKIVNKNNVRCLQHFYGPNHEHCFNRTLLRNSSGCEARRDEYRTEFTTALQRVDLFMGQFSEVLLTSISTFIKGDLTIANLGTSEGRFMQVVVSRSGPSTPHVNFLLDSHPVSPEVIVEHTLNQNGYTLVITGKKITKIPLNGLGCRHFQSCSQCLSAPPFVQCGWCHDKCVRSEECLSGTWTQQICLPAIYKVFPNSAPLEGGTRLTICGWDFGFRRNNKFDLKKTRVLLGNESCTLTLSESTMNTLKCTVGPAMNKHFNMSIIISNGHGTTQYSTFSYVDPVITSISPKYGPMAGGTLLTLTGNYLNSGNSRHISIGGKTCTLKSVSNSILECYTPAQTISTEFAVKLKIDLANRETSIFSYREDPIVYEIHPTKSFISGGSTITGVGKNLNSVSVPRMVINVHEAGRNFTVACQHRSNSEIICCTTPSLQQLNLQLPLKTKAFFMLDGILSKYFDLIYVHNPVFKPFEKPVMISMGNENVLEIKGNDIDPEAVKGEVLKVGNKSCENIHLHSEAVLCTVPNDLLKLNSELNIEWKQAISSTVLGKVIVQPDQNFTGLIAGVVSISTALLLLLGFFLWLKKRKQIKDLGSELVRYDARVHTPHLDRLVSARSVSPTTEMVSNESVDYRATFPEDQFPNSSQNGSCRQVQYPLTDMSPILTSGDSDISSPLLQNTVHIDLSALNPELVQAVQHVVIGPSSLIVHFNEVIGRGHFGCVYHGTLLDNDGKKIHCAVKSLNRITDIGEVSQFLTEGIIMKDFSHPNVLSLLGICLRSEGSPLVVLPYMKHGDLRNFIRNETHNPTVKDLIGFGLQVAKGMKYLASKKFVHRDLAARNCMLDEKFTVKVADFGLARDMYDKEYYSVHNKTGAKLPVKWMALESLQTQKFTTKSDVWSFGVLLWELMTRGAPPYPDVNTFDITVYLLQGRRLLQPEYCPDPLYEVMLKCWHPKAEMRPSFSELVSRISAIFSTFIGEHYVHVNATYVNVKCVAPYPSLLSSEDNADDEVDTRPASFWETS
recorded.endpoint: IC50

Consider the worked cases shown below.
molecule | tested.target | recorded.endpoint | val
Cn1cc(-c2cc(Oc3ccc(NC(=O)N4CCN(C5CCOCC5)C4=O)nc3)ccn2)cn1 [Example 1] | cMET kinase (Homo sapiens (Human)) | IC50 | > 5 µM
CCN1CCN(C(=O)Nc2ccc(Oc3ccnc(-c4cnn(C)c4)c3)c(C)n2)C1=O [Example 42] | cMET kinase (Homo sapiens (Human)) | IC50 | > 5 µM
CNC(=O)c1cc(Oc2ccc(NC(=O)N3CCN(C(C)(C)C)C3=O)nc2)ccn1 [Example 90] | cMET kinase (Homo sapiens (Human)) | IC50 | > 5 µM

Summary line: COCCN1CCN(C(=O)Nc2ccc(Oc3ccnc(-c4cnn(C)c4)c3)c(C)n2)C1=O [Example 18] , cMET kinase (Homo sapiens (Human)), reported IC50 = > 5 µM

Summary line: CN(C)C(=O)Nc1cc(Oc2cc(F)c(NC(=O)N3CCN(C4CCOCC4)C3=O)cc2Cl)ccn1 [Example 101] , cMET kinase (Homo sapiens (Human)), reported IC50 = 4 µM

Summary line: Cn1cc(-c2cc(Oc3ccc(NC(=O)N4CCN(C5CCCCC5)C4=O)nc3)ccn2)cn1 [Example 15] , cMET kinase (Homo sapiens (Human)), reported IC50 = 0.37 µM

Summary line: Cn1cc(-c2cc(Oc3cc(F)c(NC(=O)N4CCN(C5CCOCC5)C4=O)cc3F)ccn2)cn1 [Example 91] , cMET kinase (Homo sapiens (Human)), reported IC50 = > 5 µM

Summary line: Cc1nc(NC(=O)N2CCN(C3CCCC3)C2=O)ccc1Oc1ccnc(-c2cnn(C)c2)c1 [Example 29] , cMET kinase (Homo sapiens (Human)), reported IC50 = 0.898 µM

* * *

tested.target: unphosphorylated c-KIT kinase (uKIT, Seq. ID no. 2) (Homo sapiens (Human))
test.name: uKit kinase assay (coupled pyruvate kinase/lactate dehydrogenase)
recorded.conditions: enzymatic assay, ATP 2000 μM
Protocol: uKit Kinase (Seq. ID No. 2) Assay Activity of unphosphorylated c-KIT kinase (uKIT, Seq. ID no. 2) was determined by following the production of ADP from the KIT kinase reaction with ATP and poly E4Y as substrates through coupling with the pyruvate kinase/lactate dehydrogenase system (e.g., Schindler et al. Science (2000) 289: 1938-1942). In this assay, the oxidation of NADH (thus the decrease at A340 nm) was continuously monitored spectrophometrically. […]
recorded.endpoint: IC50

Consider the worked cases shown below.
compound | tested.target | IC50
CCN1CCN(C(=O)Nc2ccc(Oc3ccnc(-c4cnc(C)o4)c3)cn2)C1=O | unphosphorylated c-KIT kinase (uKIT, Seq. ID no. 2) (Homo sapiens (Human)) | 100 to 1000 nM
CCc1nc(NC(=O)N2CCN(C3CCOCC3)C2=O)ccc1Oc1ccnc(-c2ccnc(C)c2)c1 | unphosphorylated c-KIT kinase (uKIT, Seq. ID no. 2) (Homo sapiens (Human)) | > 1000 nM
Cc1cc(NC(=O)N2CCN(C3CC3)C2=O)nc(C)c1Oc1ccnc(-c2cnn(C)c2)c1 | unphosphorylated c-KIT kinase (uKIT, Seq. ID no. 2) (Homo sapiens (Human)) | 10 to 100 nM

According to the records, this compound CCN1CCN(C(=O)Nc2ccc(Oc3ccnc(-c4cnn(C)c4)c3)cn2)C1=O displays IC50 of 10 to 100 nM

According to the records, this compound CN(C)C(=O)Nc1cc(Oc2ccc(NC(=O)N3CCN(C4CCOCC4)C3=O)nc2)ccn1 displays IC50 of 10 to 100 nM

According to the records, this compound CCc1nc(NC(=O)N2CCN(C3CCCC3)C2=O)ccc1Oc1ccnc(-c2cnc(C)s2)c1 displays IC50 of > 1000 nM

According to the records, this compound Cc1cc(NC(=O)N2CCN(C3CCCC3)C2=O)nc(C)c1Oc1ccnc(-c2cnn(C)c2)c1 displays IC50 of < 10 nM

According to the records, this compound CCN1CCN(C(=O)Nc2ccc(Oc3ccnc(-c4cnc(C)s4)c3)cn2)C1=O displays IC50 of 10 to 100 nM

According to the records, this compound COCCCN1CCN(C(=O)Nc2ccc(Oc3ccnc(-c4cnn(C)c4)c3)c(C)n2)C1=O displays IC50 of 10 to 100 nM

According to the records, this compound Cn1cc(-c2cc(Oc3ccc(NC(=O)N4CCN(C5CCOC5)C4=O)nc3)ccn2)cn1 (stereo in doubt) displays IC50 of 10 to 100 nM

According to the records, this compound Cc1nc(NC(=O)N2CCN(C3COC3)C2=O)ccc1Oc1ccnc(-c2cnn(C)c2)c1 displays IC50 of 100 to 1000 nM

According to the records, this compound Cc1ccc(-c2cc(Oc3ccc(NC(=O)N4CCN(C5CCOCC5)C4=O)nc3)ccn2)cn1 displays IC50 of 10 to 100 nM

According to the records, this compound Cc1nc(NC(=O)N2CCN(C(C)C)C2=O)ccc1Oc1ccnc(-c2cnn(C)c2)c1 displays IC50 of 100 to 1000 nM

According to the records, this compound CCN1CCN(C(=O)Nc2ccc(Oc3ccnc(NC(C)=O)c3)c(C)n2)C1=O displays IC50 of > 1000 nM
